Below, each entry is listed alongside its reported melting point.

1. CCc1nc2cc(F)ccc2[n+]([O-])n1 [Compound 160]: 122 to 124 °C
2. Nc1nc2c(F)cccc2[n+]([O-])n1 [Compound 3ab]: 252 to 256 °C
3. [O-][n+]1nc(CCCO)nc2ccccc21 [Compound 66]: 99 to 100 °C
4. COc1cc2nc(Cl)n[n+]([O-])c2cc1C [Compound 113]: 180 to 182 °C
5. CSc1ccc2c(c1)nc(N)n[n+]2[O-] [Compound 3w]: 248 to 250 °C

// query Return reported melting point. Input compound: N#CCCCNc1nc2ccccc2[n+]([O-])n1 [Compound 27]
// result 184 to 187 °C

* * *

Structures can show the parent of a compound that is named as a salt.
reportedEndpoint: melting point

1) CCOC(=O)CNc1nc2ccccc2[n+]([O-])n1 [Compound 20]: 136 to 138 °C
2) CC(C)(C)ONC(=O)CCOCCNc1nc2ccccc2[n+]([O-])n1 [Compound 35]: 134 to 137 °C
3) [O-][n+]1nc(NCCN2CCCCC2)nc2cc(Cl)ccc21 [Compound 135]: 178 to 181 °C
4) C=CCc1nc2ccccc2[n+]([O-])n1 [Compound 60, 3-Allyl-1,2,4-benzotriazine 1-oxide]: 57 to 58 °C
5) Cc1ccc2c(c1)nc(Cl)n[n+]2[O-] [Compound 73]: 156 to 158 °C
6) COc1ccc2nc(NCCN(C)C)n[n+]([O-])c2c1 (as salt: hydrochloride) [Compound 92]: 231 to 235 °C
7) Cc1ccc2c(c1)nc(NCCN1C(C)CCCC1C)n[n+]2[O-] (centres unmarked) [Compound 78]: 162 to 165 °C
8) Nc1nc2ccc(OCCBr)cc2[n+]([O-])n1 [Compound 15]: 228 to 230 °C

// below: melting point requested for another compound
// query Return reported melting point. Input compound: CCN(CC)CCNc1nc2cc(C)ccc2[n+]([O-])n1 [Compound 137]
// result 78 to 80 °C

* * *

Below, each entry is listed alongside its reported melting point.

1) Nc1nc2ccc([N+](=O)[O-])cc2[n+]([O-])n1: 269 to 272 °C

// query Return reported melting point. Input molecule: `Cc1cc2nc(NCCNC(=O)OC(C)(C)C)n[n+]([O-])c2cc1C`
// result 226 to 228 °C

// query Return reported melting point. Input molecule: `CSc1cccc2c1nc(N)n[n+]2[O-]`
// result 248 to 252 °C

// query Return reported melting point. Input molecule: `Nc1nc2c([N+](=O)[O-])cccc2[n+]([O-])n1`
// result 269 to 272 °C

// query Return reported melting point. Input molecule: `[O-][n+]1nc(Cl)nc2ccc(OCCN3CCOCC3)cc21`
// result 144 to 146 °C

// query Return reported melting point. Input molecule: `COCCOc1ccc2nc(N)n[n+]([O-])c2c1`
// result 201 to 203 °C

// query Return reported melting point. Input molecule: `Cc1ccc2c(c1)nc(NCCN(C)C)n[n+]2[O-]`
// result 143 to 145 °C

// query Return reported melting point. Input molecule: `CCN(CC)CCNc1nc2cc(C)c(C)cc2[n+]([O-])n1`
// result 130 to 132 °C

// query Return reported melting point. Input molecule: `Nc1nc2ccc(Cl)cc2[n+]([O-])n1`
// result 309 °C (dec.)

// query Return reported melting point. Input molecule: `Cc1ccc2c(c1)nc(NCCCN1CCOCC1)n[n+]2[O-]`
// result 131 to 132 °C

// query Return reported melting point. Input molecule: `CCCCSc1ccc2nc(N)n[n+]([O-])c2c1`
// result 215 to 217 °C

// query Return reported melting point. Input molecule: `Cc1cc2nc(NCCN(C)C)n[n+]([O-])c2cc1C`
// result 175 to 178 °C

// query Return reported melting point. Input molecule: `[O-][n+]1nc(NCCN2CCCC2)nc2ccccc21`
// result 141 to 143 °C

// query Return reported melting point. Input molecule: `COc1cc2nc(NCCN(C)C)n[n+]([O-])c2cc1C`
// result 167 to 169 °C

// query Return reported melting point. Input molecule: C=Cc1nc2ccccc2[n+]([O-])n1 [Compound 59, 3-Vinyl-1,2,4-benzotriazine 1-oxide]
// result 85 to 86 °C

// query Return reported melting point. Input molecule: `CCc1nc2ccc(OCCOC)cc2[n+]([O-])n1`
// result 95 to 97 °C

* * *

reportedEndpoint: melting point

1) Nc1nc2ccccc2n[n+]1[O-] [Compound 126, 1,2,4-Benzotriazin-3-amine 2-oxide]: 175 to 180 °C
2) Nc1nc2cccc(F)c2[n+]([O-])n1 [Compound 3c]: 270 to 278 °C (dec.)
3) CN(C)CCc1nc2ccccc2[n+]([O-])n1: 47 to 49 °C
4) CCCN(CCC)CCNc1nc2cccc(C)c2[n+]([O-])n1 [Compound 165]: 91 to 93 °C

// below: melting point requested for another molecule
// query Return reported melting point. Input molecule: Cc1cc(C)c2c(c1)nc(NCCN1CCCCC1)n[n+]2[O-] [Compound 110]
// result 177 to 178 °C

* * *

reportedEndpoint: melting point

Record excerpt, results attached:
1) CC(C)(C)OC(=O)NCCCNc1nc2ccccc2[n+]([O-])n1: 145 to 147 °C
2) CCN(CC)c1ccc2c(c1)nc(N)n[n+]2[O-]: 247 to 251 °C
3) [N-]=[N+]=NCCCNc1nc2ccccc2[n+]([O-])n1: 128 to 130 °C
4) Cc1ccc2c(c1)nc(CCO)n[n+]2[O-]: 121 to 123 °C
5) CCCN(CCC)CCNc1nc2cc(C(C)C)ccc2[n+]([O-])n1: 79 to 81 °C
6) Nc1nc2cc(C(F)(F)F)ccc2[n+]([O-])n1: 280 to 284 °C (dec.)
7) CCCN(CCC)CCNc1nc2cc(C)ccc2[n+]([O-])n1: 88 to 90 °C
8) COc1ccc2c(c1)nc(Cl)n[n+]2[O-]: 196 to 199 °C

// query Return reported melting point. Input compound: `O=C(O)Cc1ccc(Nc2nc3ccccc3[n+]([O-])n2)cc1`
// result 243 to 245 °C

// query Return reported melting point. Input compound: `CSc1ccc2nc(N)n[n+]([O-])c2c1`
// result 245 to 247 °C

* * *

reportedEndpoint: melting point

Record excerpt, results attached:
1) CN(C)CCNc1nc2cc(C(C)(C)C)ccc2[n+]([O-])n1: 140 to 144 °C
2) CCN(CCCNc1nc2ccccc2[n+]([O-])n1)C(=O)OC(C)(C)C: 64 to 66 °C
3) Nc1nc2ccc(C(F)(F)F)cc2[n+]([O-])n1: 290 °C (dec.)

// query Return reported melting point. Input compound: `CCN(CC)CCNc1nc2cc(Cl)ccc2[n+]([O-])n1`
// result 128 to 130 °C

// query Return reported melting point. Input compound: `[O-][n+]1nc(NCCOCCO)nc2ccccc21`
// result 131 to 131.5 °C

// query Return reported melting point. Input compound: `[O-][n+]1nc(Cl)nc2cc(C(F)(F)F)ccc21`
// result 118 to 120 °C

// query Return reported melting point. Input compound: `CC(C)(C)c1ccc2c(c1)nc(N)n[n+]2[O-]`
// result 209 to 212 °C

// query Return reported melting point. Input compound: `Cc1ccc2nc(NCCN3CCCCC3)n[n+]([O-])c2c1`
// result 166 to 168 °C

* * *

Below, each entry is listed alongside its reported melting point.

Record excerpt, results attached:
1) COc1cc2nc(N)n[n+]([O-])c2cc1C [Compound 112]: 289 to 292 °C
2) COCCNc1nc2ccccc2[n+]([O-])n1 [Compound 23]: 155 to 156 °C

// query Return reported melting point. Input compound: COc1ccc2nc(NCCN3CCCCC3)n[n+]([O-])c2c1 [Compound 93]
// result 162 to 165 °C

// query Return reported melting point. Input compound: COCCNc1nc2ccccc2[n+]([O-])c1C#N [Compound 123]
// result 124 to 126 °C

// query Return reported melting point. Input compound: `Cl.[O-][n+]1nc(CCN2CCOCC2)nc2ccccc21`
// result 213 to 215 °C

// query Return reported melting point. Input compound: CCN(CC)CCNc1nc2cc(C(C)C)ccc2[n+]([O-])n1 [Compound 148]
// result 60 to 62 °C

* * *

Below, each entry is listed alongside its reported melting point.

Record excerpt, results attached:
1. Cc1cc(C)c2c(c1)nc(Cl)n[n+]2[O-]: 120 to 122 °C
2. CC(C)c1ccc2c(c1)nc(NCCN(C)C)n[n+]2[O-]: 87 to 89 °C
3. [O-][n+]1nc(CC2CO2)nc2ccccc21 (stereo not drawn): 105 to 107 °C
4. Cc1cc2nc(NCCN3CCOCC3)n[n+]([O-])c2cc1C: 211 to 213 °C
5. Cc1cc2nc(Cl)n[n+]([O-])c2cc1C: 148 to 149 °C

// query Return reported melting point. Input molecule: `CC(C)(C)c1ccc2c(c1)nc(NCCN1CCCCC1)n[n+]2[O-]`
// result 145 to 148 °C

// query Return reported melting point. Input molecule: `Nc1nc2c(Cl)cccc2[n+]([O-])n1`
// result 251 to 254 °C

// query Return reported melting point. Input molecule: `COCCOc1ccc2nc(Cl)n[n+]([O-])c2c1`
// result 121 to 125 °C

// query Return reported melting point. Input molecule: `COCCc1cccc(Nc2nc3ccccc3[n+]([O-])n2)c1`
// result 122 to 124 °C

// query Return reported melting point. Input molecule: `Cc1cccc2nc(Cl)n[n+]([O-])c12`
// result 170 to 173 °C

// query Return reported melting point. Input molecule: `CC(C)(C)c1ccc2c(c1)nc(Cl)n[n+]2[O-]`
// result 91 to 94 °C

// query Return reported melting point. Input molecule: `Cc1cccc2c1nc(N)n[n+]2[O-]`
// result 253 to 255 °C

// query Return reported melting point. Input molecule: `Cc1cccc2nc(NCCN3CCOCC3)n[n+]([O-])c12`
// result 168 to 170 °C

// query Return reported melting point. Input molecule: `CN(C)c1ccc2nc(N)n[n+]([O-])c2c1`
// result 231 to 233 °C

// query Return reported melting point. Input molecule: Cc1cccc2nc(NCCN3C(C)CCCC3C)n[n+]([O-])c12 (stereo not drawn)
// result 169 to 171 °C

// query Return reported melting point. Input molecule: `Cc1cccc2nc(N)n[n+]([O-])c12`
// result 265 °C (dec.)

// query Return reported melting point. Input molecule: `CC(C)c1ccc2c(c1)nc(NCCN1CCCCC1)n[n+]2[O-]`
// result 124 to 127 °C

// query Return reported melting point. Input molecule: `N#CCCNc1nc2ccccc2[n+]([O-])n1`
// result 191 to 193 °C

// query Return reported melting point. Input molecule: `Cc1cccc2nc(NCCN(C)C)n[n+]([O-])c12`
// result 121 to 123 °C

// query Return reported melting point. Input molecule: `Nc1nc2cc(F)ccc2[n+]([O-])n1`
// result 276 to 280 °C

// query Return reported melting point. Input molecule: COc1cccc2nc(N)n[n+]([O-])c12 (hydrate or solvate)
// result 235 to 239 °C

# credit: patent US20040192686A1
